# CONDITION_DESCRIPTION: 318.15 K; 4000 kPa; Liquid
ENDPOINT: mass density (kg/m3)
Please reply with the bare figure in kg/m3 and do not write the unit itself.

Solved cases below.
INSERT INTO measurements (molecule, endpoint, output_unit, number) VALUES
  ('CN(C)C=O [dimethylformamide]', 'mass density', 'kg/m3', 928.3),
  ('CCCCCCCCCl [1-chlorooctane]', 'mass density', 'kg/m3', 856.2),
  ('CCCCCl [1-chlorobutane]', 'mass density', 'kg/m3', 863.8),
  ('CCCCCCCl [1-chlorohexane]', 'mass density', 'kg/m3', 858.9);

Then this molecule:
Bench note: what mass density did CC(=O)N(C)C [N,N-dimethylethanamide] show? 921.2

* * *

# CONDITION_DESCRIPTION: 308.15 K; 6100 kPa; Liquid
Numbers after ± are expanded uncertainties.
Overview of reported mass density across a group of molecules:

INSERT INTO results (molecule, endpoint, result) VALUES
  ('CCCCCCCl', 'mass density', '869.7 ± 0.8 kg/m3'),
  ('CC(=O)N(C)C [N,N-dimethylethanamide]', 'mass density', '931.6 ± 0.6 kg/m3'),
  ('CN(C)C=O [dimethylformamide]', 'mass density', '938.9 ± 0.6 kg/m3');

Then this molecule:
Bench note: what mass density did `CCCCCl` show? 876.5 ± 0.3 kg/m3

* * *

# CONDITION_DESCRIPTION: 298.15 K; 14200 kPa; Liquid
Numbers after ± are expanded uncertainties.
ENDPOINT: mass density
Write the numeric value and follow it with the unit.

Solved cases below.
INSERT INTO assay_data (compound, endpoint, result) VALUES
  ('CCCCCCCCCl', 'mass density', '879.3 ± 1.8 kg/m3'),
  ('CCCCCl', 'mass density', '894.7 ± 0.3 kg/m3'),
  ('CCCCCCCl', 'mass density', '885 ± 1 kg/m3');

Then this compound:
Bench note: what mass density did CC(=O)N(C)C [N,N-dimethylethanamide] show? 945.3 ± 0.7 kg/m3

* * *

Overview of reported mass density across a group of molecules:
# CONDITION_DESCRIPTION: 298.15 K; 12100 kPa; Liquid
Please reply with the bare figure in kg/m3 and do not write the unit itself.

INSERT INTO measurements (molecule, output_unit, number) VALUES
  ('CCCCCl [1-chlorobutane]', 'kg/m3', 892.8);

Bench note: what mass density did CN(C)C=O [dimethylformamide] show? 951

Now try CCCCCCCCCl [1-chlorooctane] . 877.8

Now try CC(=O)N(C)C [N,N-dimethylethanamide] . 944.1

Now try CCCCCCCl [1-chlorohexane] . 883.3

* * *

# CONDITION_DESCRIPTION: 308.15 K; 10100 kPa; Liquid
ENDPOINT: mass density (kg/m3)
Please reply with the bare figure in kg/m3 and do not write the unit itself.

Solved cases below.
INSERT INTO measurements (compound, number) VALUES
  ('CN(C)C=O [dimethylformamide]', 941.2),
  ('CCCCCCCCCl', 869.1),
  ('CCCCCl', 880.8);

Then this compound:
Bench note: what mass density did CC(=O)N(C)C [N,N-dimethylethanamide] show? 934
